System: UniProtKB P31645
Protocol Summary: Human serotonin transporter  assay ([3H]imipramine radioligand, CHO cells)
Format: binding
Experimental Context: 2 nM [3H]imipramine, CHO cells; read-out: SERT IC50
pIC50: −log10 of the molar value.
Experimental Endpoint: pIC50

**Query** Recorded pIC50 for "CC[C@@H](Cc1ccc2occc2c1)NC" , please?
**Result** > 6.02

**Query** Recorded pIC50 for "CC[C@H](Cc1ccc2occc2c1)NC" , please?
**Result** > 6.02

---

System: serotonin (5-HT) transporter (SERT) (Rattus norvegicus (Rat), UniProt P31652)
Protocol Summary: Rat synaptosome SERT uptake inhibition assay ([3H]5-HT)
Experimental Context: read-out: Inhibition of [3H]5-HT Uptake at SERT IC50; rat brain synaptosomes, 5 nM [3H]5-HT
Would you kindly list IC50 for each of these compounds?
Numeric answer only, unit µM assumed.

**Query** Recorded IC50 for CN[C@H](C)Cc1ccc2ccoc2c1 (stereo in doubt) , please?
**Result** 0.623

**Query** Recorded IC50 for "CN[C@H](C)Cc1ccc2occc2c1" , please?
**Result** 0.15

**Query** Recorded IC50 for "CN[C@@H](C)Cc1ccc2occc2c1" , please?
**Result** 0.0604

**Query** Recorded IC50 for "CN[C@@H](C)Cc1ccc2ccoc2c1" , please?
**Result** 0.0909
